- studyTarget: T1, biotinylated human VWF cysteine knot (CK) domain construct (human, UniProt P04275 2724-2813, biotinylated in vitro (BirA) on the biotinylation tag; one N-glycan)
- T1 construct: Expressed in HEK293 EBNA cells; disulfide-linked homodimer; also called human VWF CK; human VWF CK domain; not shown: in vitro biotinylation tag, HRV-3C site and 3 VWF residues before the CK domain
- methodSummary: SPR, scFv captured via anti-SV5, CK domain injected, pH 5.5, apparent Kd;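 further: scFvs from crude yeast supernatants captured on chip-bound anti-SV5 antibody, Kd computed as koff divided by kon, dimeric CK construct likely makes affinity appear higher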
recordedMetric: Kd (nM)
Write the number in nM without appending the unit.

487_Lib1_scFv (scFv, VH-linker-VL; not shown: C-terminal 3xFLAG and SV5 tags) scFv: QVQLVQSGAEVKKPGASVKVSCKVSGYTFTSHIIHWVRQAPGKGLEWMGGMNPYSNKAIYAQKFQGRVTMTEDTSTDTAYMELSSLKSEDTAVYYCARDASDYGDYGYYYYYMDVWGKGTTVTVSSSGGSTITSYNVYYTKLSSSGTDIQMTQSPSSVSASVGDRVTITCRASQSIGDFLAWYQQKPGKAPKLLIYDASHLQTGVPSRFSGSGSGTDFTLTISSLQPEDFANYYCQQTSTIPPTFGGGTKVEIK = 0.829

Lib4_P2_A2_scFv (scFv, VH-linker-VL; not shown: C-terminal 3xFLAG and SV5 tags) scFv: QVQLVQSGAEVKKPGASVKVSCKVSGDTLSNYAIHWVRQAPGKGLEWMGGINPNAGTTIYAQKFQGRVTMTEDTSTDTAYMELSSLKSEDTAVYYCARDSSSWCPVGYYYYYMDVWGKGTTVTVSSSGGSTITSYNVYYTKLSSSGTDIQMTQSPSSVSASVGDRVTITCRASQSIGDFLAWYQQKPGKAPKLLIYDASHLQTGVPSRFSGSGSGTDFTLTISSLQPEDFANYYCQQTSTIPPTFGGGTKVEIK yielded Kd of 0.604
